- TARGET OR SYSTEM: purified aldose reductase isolated from bovine lenses (Bos taurus)
- Construct: purified aldose reductase is isolated in known manner from bovine lenses
- MEASUREMENT DESCRIPTION: in vitro inhibition of purified aldose reductase (reduction of glucose to sorbitol, spectrophotometric)
READOUT KIND: pKi
Just the number, please; pKi means minus log10 of the concentration in mol/L.

Note down pKi recorded for `O=C(O)Cc1nn(Cc2ccc(Br)cc2F)c(=O)c2ccccc12`
7.70

Sourced from patent US4251528A
